# target: human TLR7 (Homo sapiens (Human))
# Sequence (Q9NYK1 27-1049): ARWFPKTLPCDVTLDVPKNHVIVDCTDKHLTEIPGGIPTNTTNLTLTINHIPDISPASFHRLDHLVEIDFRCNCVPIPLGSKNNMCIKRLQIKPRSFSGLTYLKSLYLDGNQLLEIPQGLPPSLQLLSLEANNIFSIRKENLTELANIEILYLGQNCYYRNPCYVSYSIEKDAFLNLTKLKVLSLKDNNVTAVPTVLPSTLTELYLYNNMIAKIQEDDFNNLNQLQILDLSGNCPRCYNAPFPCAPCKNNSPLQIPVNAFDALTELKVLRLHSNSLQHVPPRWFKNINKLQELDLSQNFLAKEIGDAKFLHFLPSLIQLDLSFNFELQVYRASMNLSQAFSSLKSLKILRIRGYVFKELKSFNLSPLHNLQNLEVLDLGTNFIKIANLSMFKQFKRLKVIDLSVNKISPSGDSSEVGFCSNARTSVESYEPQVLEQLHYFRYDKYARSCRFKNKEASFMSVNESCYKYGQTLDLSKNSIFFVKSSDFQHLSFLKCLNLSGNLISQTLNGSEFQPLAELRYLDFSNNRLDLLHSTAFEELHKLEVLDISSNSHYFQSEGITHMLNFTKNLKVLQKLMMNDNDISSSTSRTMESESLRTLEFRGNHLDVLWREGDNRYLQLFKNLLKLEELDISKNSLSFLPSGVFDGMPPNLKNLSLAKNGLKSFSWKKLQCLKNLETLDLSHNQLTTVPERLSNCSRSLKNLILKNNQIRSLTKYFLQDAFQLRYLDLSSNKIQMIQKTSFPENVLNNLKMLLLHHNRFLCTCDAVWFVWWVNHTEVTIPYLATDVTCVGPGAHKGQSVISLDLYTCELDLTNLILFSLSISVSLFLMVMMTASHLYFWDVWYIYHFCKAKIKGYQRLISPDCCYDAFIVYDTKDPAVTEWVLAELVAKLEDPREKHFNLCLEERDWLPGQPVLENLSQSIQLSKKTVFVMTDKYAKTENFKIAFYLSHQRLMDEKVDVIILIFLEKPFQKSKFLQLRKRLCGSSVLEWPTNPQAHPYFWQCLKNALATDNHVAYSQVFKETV
# test.protocol: TLR7 inhibition reporter assay (HEK-Blue SEAP reporter, gardiquimod stimulation)
# Type: cell-based
# applied.conditions: HEK-Blue cells overexpressing human TLR7, gardiquimod 7.5 μM
Provide the recorded log10 of IC50 for the entries that follow.
Would you kindly interpret these values as log10 of IC50 expressed in nM?

Fill in log10 of IC50 for Cc1cc(-c2[nH]c3ccc(C(C)(C)C(=O)N4CCC(CN)C4)cc3c2C(C)C)ccn1 (centres unmarked) [Example 151] tested with human TLR7 (Homo sapiens (Human)).
1.86

Give log10 of IC50 only, for CCc1c(-c2ccc(OC)c(OC)c2)[nH]c2ccc(C(=O)N[C@H]3CC[C@H](N)CC3)cc12 [Example 47] , using human TLR7 (Homo sapiens (Human)) data.
2.18

Write down the reported log10 of IC50 (system: human TLR7 (Homo sapiens (Human))) of CCc1c(-c2ccc(OC)c(OC)c2)[nH]c2ccc(C(=O)N3CCN(CCN4CCOCC4)CC3)cc12 [Example 42]
2.88

Quote log10 of IC50 with test system human TLR7 (Homo sapiens (Human)) for Cc1cc(-c2[nH]c3ccc(C(C)C(=O)N4CCCC(CN)C4)cc3c2C(C)C)ccn1 (centres unmarked) [Example 205]
2.44

GET log10 of IC50 | system: human TLR7 (Homo sapiens (Human)) | item: Cc1cc(-c2[nH]c3ccc(C(=O)N4CCNCC4)cc3c2C(C)C)cc(C)n1 [Example 108]
0.86

Answer briefly: log10 of IC50 recorded on human TLR7 (Homo sapiens (Human)) for COc1ccc(-c2[nH]c3ccc(C(=O)N4CC5CN(C6CCN(C)CC6)CC5C4)cc3c2C(C)C)cc1OC (centres unmarked) [Example 15]
2.00

Specify log10 of IC50 for COc1cc(-c2[nH]c3ccc(C(=O)NC4CCN(C(C)C)CC4)cc3c2C(C)C)cn2ncnc12 [Example 127] , system human TLR7 (Homo sapiens (Human)).
0.40

Send back human TLR7 (Homo sapiens (Human)) log10 of IC50 of CCc1c(-c2ccc(OC)c(OC)c2)[nH]c2ccc(C(=O)NCCc3ccncc3)cc12 [Example 50] only.
2.58

---

# target: human TLR8 (Homo sapiens (Human))
# Sequence (Q9NR97 27-1041): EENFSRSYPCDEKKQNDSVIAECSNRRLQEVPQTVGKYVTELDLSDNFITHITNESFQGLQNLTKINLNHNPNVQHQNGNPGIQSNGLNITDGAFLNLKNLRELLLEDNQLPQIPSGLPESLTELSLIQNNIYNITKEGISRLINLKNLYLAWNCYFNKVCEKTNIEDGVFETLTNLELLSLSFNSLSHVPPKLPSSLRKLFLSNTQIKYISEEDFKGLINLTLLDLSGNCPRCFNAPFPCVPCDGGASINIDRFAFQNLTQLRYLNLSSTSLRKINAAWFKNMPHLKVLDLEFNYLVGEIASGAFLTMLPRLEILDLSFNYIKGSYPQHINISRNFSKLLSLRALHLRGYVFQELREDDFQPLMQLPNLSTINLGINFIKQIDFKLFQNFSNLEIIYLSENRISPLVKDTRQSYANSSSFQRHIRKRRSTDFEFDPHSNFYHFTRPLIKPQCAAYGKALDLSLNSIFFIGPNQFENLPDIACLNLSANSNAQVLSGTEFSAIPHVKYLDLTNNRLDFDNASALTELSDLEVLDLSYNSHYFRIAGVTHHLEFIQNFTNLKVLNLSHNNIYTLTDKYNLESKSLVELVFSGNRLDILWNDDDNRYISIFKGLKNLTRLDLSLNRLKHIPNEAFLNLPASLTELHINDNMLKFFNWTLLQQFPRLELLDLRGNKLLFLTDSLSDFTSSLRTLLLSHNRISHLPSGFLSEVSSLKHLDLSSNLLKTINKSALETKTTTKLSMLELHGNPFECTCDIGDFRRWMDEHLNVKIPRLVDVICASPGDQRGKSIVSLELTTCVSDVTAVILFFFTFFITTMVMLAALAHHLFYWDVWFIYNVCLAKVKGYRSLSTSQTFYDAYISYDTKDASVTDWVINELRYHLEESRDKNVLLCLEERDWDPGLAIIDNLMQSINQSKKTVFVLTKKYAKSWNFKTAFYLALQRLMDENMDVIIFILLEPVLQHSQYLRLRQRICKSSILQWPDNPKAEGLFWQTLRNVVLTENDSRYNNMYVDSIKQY
# test.protocol: TLR8 inhibition reporter assay (HEK-Blue SEAP reporter, R848 stimulation)
# applied.conditions: read-out: TLR8 IC50; HEK-Blue cells overexpressing human TLR8, R848 15.9 μM, SEAP reporter
reported.metric: pIC50
To interpret pIC50, take it as minus log10 of a concentration measured in moles per litre.

Input CNC(=O)c1ccc2[nH]c(-c3ccc(OC)c(OC)c3)c(C(C)C)c2c1 , output reported pIC50.
7.57

// fetch pIC50 given entry CCc1c(-c2ccc(OC)c(OC)c2)[nH]c2ccc(C(=O)NCCC(C)(C)NS(C)(=O)=O)cc12
6.36

Please give measured pIC50 of the following entry: CCc1c(-c2ccc(OC)c(OC)c2)[nH]c2ccc(C(=O)NCCN3CCCC3)cc12
8.32

Please give measured pIC50 of the following entry: Cc1cc(-c2[nH]c3ccc(C(=O)N4CCCN(C)CC4)cc3c2C(C)C)ccn1
8.62

// Input: COc1cc(-c2[nH]c3ccc(C(=O)N4CC5CNCC5C4)cc3c2C(C)C)cn2ncnc12 (stereo not shown) . Output its pIC50 only.
6.63

Answer with the recorded pIC50 for the compound listed here: CCc1c(-c2ccnc(C)c2)[nH]c2ccc(C(=O)N(CC)CCN(C)C)cc12
8.68

In one line, give reported pIC50 of the entry Cc1cc(-c2[nH]c3ccc(C(C)(C)C(=O)N4CCCCC4CN)cc3c2C(C)C)ccn1 (stereo not shown) .
7.55

Note pIC50 for the compound shown: CCc1c(-c2ccc(OC)c(OC)c2)[nH]c2ccc(C(=O)N3CCN(CCOC)CC3)cc12
7.92

Specify reported pIC50 for the compound shown: CCc1c(-c2ccnc(C)c2)[nH]c2ccc(C(=O)N3CC4CNCC4C3)cc12 (stereo not shown)
6.80

Identify the reported pIC50 for the following entry. CCc1c(-c2ccc(OC)c(OC)c2)[nH]c2ccc(C(=O)N(CCOC)CCOC)cc12
6.32

Please give measured pIC50 of the following entry: Cc1cc(-c2[nH]c3ccc(C(=O)N(C)C4CCN(C)CC4)cc3c2C(C)C)cc(C)n1
9.47

Provide only the value of recorded pIC50 for CCc1c(-c2ccc(OC)c(OC)c2)[nH]c2ccc(C(=O)N3CCc4ccccc43)cc12
5.93

Name the recorded pIC50 of the item Cc1cc(-c2[nH]c3ccc(C(C)(C)C(=O)NCC4(O)CCN(C)CC4)cc3c2C(C)C)ccn1 in your answer.
6.82

Please give measured pIC50 of the following entry: COc1cc(-c2[nH]c3ccc(C(=O)NC4CCN(C(C)C)CC4)cc3c2C(C)C)cn2ncnc12
8.77

Determine from records and report pIC50 for Cc1cc(-c2[nH]c3ccc(C(C)C(=O)NC4CCC(N)CC4)cc3c2C(C)C)ccn1 (stereo not shown)
6.50

Given the compound Cc1cc(-c2[nH]c3ccc(C(C)C(=O)N4CCC5(CCN(C)C5)CC4)cc3c2C(C)C)ccn1 (stereo not shown) , write its reported pIC50.
7.14

---

# target: human TLR9 (Homo sapiens (Human))
# Sequence (Q9NR96 26-1032): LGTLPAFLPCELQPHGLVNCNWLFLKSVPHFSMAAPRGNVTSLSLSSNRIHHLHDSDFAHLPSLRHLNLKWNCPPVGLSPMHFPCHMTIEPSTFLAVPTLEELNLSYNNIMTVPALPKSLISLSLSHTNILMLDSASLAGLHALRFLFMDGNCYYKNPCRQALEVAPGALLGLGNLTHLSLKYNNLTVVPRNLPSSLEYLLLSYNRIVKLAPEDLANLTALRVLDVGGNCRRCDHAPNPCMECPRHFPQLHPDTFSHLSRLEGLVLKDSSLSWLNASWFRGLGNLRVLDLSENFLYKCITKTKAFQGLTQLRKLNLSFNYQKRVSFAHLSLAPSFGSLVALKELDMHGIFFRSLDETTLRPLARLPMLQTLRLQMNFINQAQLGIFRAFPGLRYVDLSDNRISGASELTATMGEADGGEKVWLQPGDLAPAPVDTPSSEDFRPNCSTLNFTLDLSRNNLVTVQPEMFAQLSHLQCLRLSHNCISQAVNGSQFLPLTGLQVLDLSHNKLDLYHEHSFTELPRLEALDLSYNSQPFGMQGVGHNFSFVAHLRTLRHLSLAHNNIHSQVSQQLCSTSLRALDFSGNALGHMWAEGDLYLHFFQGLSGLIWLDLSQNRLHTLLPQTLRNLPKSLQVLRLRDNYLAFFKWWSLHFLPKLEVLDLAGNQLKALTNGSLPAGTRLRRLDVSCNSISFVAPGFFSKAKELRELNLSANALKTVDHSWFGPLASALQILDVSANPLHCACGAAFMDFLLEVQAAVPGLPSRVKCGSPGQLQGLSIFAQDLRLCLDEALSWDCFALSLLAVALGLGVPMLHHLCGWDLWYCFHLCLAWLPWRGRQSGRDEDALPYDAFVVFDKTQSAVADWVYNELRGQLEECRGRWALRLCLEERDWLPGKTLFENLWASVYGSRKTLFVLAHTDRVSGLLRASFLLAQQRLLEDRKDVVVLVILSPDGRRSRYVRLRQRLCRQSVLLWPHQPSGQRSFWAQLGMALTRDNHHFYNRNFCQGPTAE
# test.protocol: TLR9 inhibition reporter assay (HEK-Blue SEAP reporter, ODN2006 stimulation);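 further: SEAP reporter under IFN-β minimal promoter with five NF-κB and AP-1 sites, 22 h incubation, compounds 0.05 nM–50 µM, inhibition relative to agonist plus DMSO versus known inhibitor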
# applied.conditions: read-out: TLR9 IC50; HEK-Blue cells overexpressing human TLR9, ODN2006 5 nM, SEAP reporter
reported.metric: IC50 (µM)
Expressed in µM, but write only the number.

Return IC50 (reported value) for this compound: Cc1cc(-c2[nH]c3ccc(C(=O)N4CC5CN(C(=O)CN(C)C)CC5C4)cc3c2C(C)C)ccn1 (stereo not shown)
0.752

Answer with the recorded IC50 of Cc1cc(-c2[nH]c3ccc(C(C)(C)C(=O)N[C@H]4CCNC4)cc3c2C(C)C)ccn1 only.
1.17

Fill in IC50 for record Cc1cc(-c2[nH]c3ccc(C(C)(C)C(=O)NCC4CCNCC4)cc3c2C(C)C)ccn1
2.53

Give recorded IC50. Cc1cc(-c2[nH]c3ccc(C(C)(C)C(=O)N[C@@H]4CCCC[C@H]4N)cc3c2C(C)C)ccn1
0.899

---

So I've got a bunch of compounds here, and I need their IC50 values.
# target: human TLR8 (Homo sapiens (Human))
# test.protocol: TLR8 inhibition reporter assay (HEK-Blue SEAP reporter, R848 stimulation);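 further: SEAP driven by IFN-β minimal promoter with NF-κB and AP-1 sites, 22 h incubation, compounds 0.05 nM–50 µM, inhibition scaled between agonist plus DMSO and reference inhibitor wells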
# applied.conditions: read-out: TLR8 IC50; HEK-Blue cells overexpressing human TLR8, R848 15.9 μM, SEAP reporter
Structures can show the parent of a compound that is named as a salt.
// units = nM; emit number, no label

Give the measured IC50 for Cc1cc(-c2[nH]c3ccc(C(C)C(=O)NC4CCC5CNCC54)cc3c2C(C)C)ccn1 (centres unmarked) [Example 186]
100

Identify measured IC50 corresponding to CCc1c(-c2ccc(OC)c(OC)c2)[nH]c2ccc(C(=O)NC3CCCCCC3)cc12
858

Hello, please tell me recorded IC50 for this one: Cc1cc(-c2[nH]c3ccc(C(C)C(=O)N4CCC(CN)C4)cc3c2C(C)C)ccn1 (centres unmarked)
303

Dear colleague, please send me the reported IC50 for Cc1cc(-c2[nH]c3ccc(C(C)C(=O)N4CC5CN(C)CC5C4)cc3c2C(C)C)ccn1 (centres unmarked) when you can.
130

Supply reported IC50 belonging to this compound: CC(C)c1c(-c2ccnc3[nH]ncc23)[nH]c2ccc(C(=O)N3CC4CNCC4C3)cc12 (centres unmarked) [Example 121, HCl]
122

Specify measured IC50 for CCc1c(-c2ccc(OC)c(OC)c2)[nH]c2ccc(C(=O)N3CCC(C(N)=O)CC3)cc12 .
218

Quote IC50 reported for Cc1cc(-c2[nH]c3ccc(C(C)C(=O)NC4CN5CCC4CC5)cc3c2C(C)C)ccn1 (centres unmarked) [Example 191] please.
209

Annotate the compound Cc1cc(-c2[nH]c3ccc(C(=O)NC4CCN(C(C)C)CC4)cc3c2C(C)C)ccn1 with its measured IC50.
0.8

---

# target: UniProt Q9NYK1
# test.protocol: TLR7 inhibition reporter assay (HEK-Blue SEAP reporter, gardiquimod stimulation)
# Type: cell-based
# applied.conditions: HEK-Blue cells overexpressing human TLR7, gardiquimod 7.5 μM
pIC50: −log10 of the molar value. Counter-ions that a name gives are not always drawn.
Assign true to entries whose pIC50 meets or exceeds 7; assign false to the rest.

State whether the measured pIC50 reaches 7, counting equality as reaching it, for COc1cc(-c2[nH]c3ccc(C(=O)N4CC5CNCC5C4)cc3c2C(C)C)cn2ncnc12 (centres unmarked)
true

Check this compound for pIC50 at or above 7: Cc1c(-c2[nH]c3ccc(C(=O)N(C)CCN(C)C)cc3c2C(C)C)cn(C)c(=O)c1Cl
true

Threshold query (pIC50 >= 7) on Cc1cc(-c2[nH]c3ccc(C(=O)N4CC5CNCC5C4)cc3c2C(C)C)ccn1 (centres unmarked) [Example 112, HCl]
false

Check this compound for pIC50 at or above 7: CCc1c(-c2ccc(OC)c(OC)c2)[nH]c2ccc(C(=O)N3CCCN(c4ncccn4)CC3)cc12
false

# bool: pIC50 of Cc1cc(-c2[nH]c3ccc(C(C)C(=O)NCC4CCCNC4)cc3c2C(C)C)ccn1 (centres unmarked) >= 7
false

Reference for the values: patent US11420973B2
